Recorded MIC, one value per entry.
test system: Mycobacterium tuberculosis; assay: Antimycobacterial activity against Mycobacterium tuberculosis H37Rv; assay type: functional
Could you give me the number in µM? Just the number is fine.

In the examples that follow, each entry is paired with its recorded MIC.
molecule	endpointLabel	quantitativeResult
CCCCCCCCCCN1CCCC(O/N=C2\[C@H](C)C[C@@](C)(OC)[C@H](O[C@@H]3O[C@H](C)C[C@H](N(C)C)[C@H]3O)[C@@H](C)C(=O)[C@@H](C)C(=O)O[C@H](CC)[C@@](C)(O)[C@H](O)[C@H]2C)C1 (some centres undefined)	MIC	0.125
COc1ccc(CCNc2cc(-c3ccccc3)nc3ncnn23)cc1	MIC	0.94

Enquiry: I have this molecule here, `CCc1ccc([C@@H]2C[C@H](C(F)(F)F)n3ncc(C(=O)NCc4ccc(OC)cc4)c3N2)cc1` , and I need its recorded MIC.
Return: 0.25

These entries and their values trace back to ChEMBL document CHEMBL2429770.
